# targetDesc: Heme oxygenase 1 (Homo sapiens, UniProt P09601)
# Sequence (P09601 whole entry): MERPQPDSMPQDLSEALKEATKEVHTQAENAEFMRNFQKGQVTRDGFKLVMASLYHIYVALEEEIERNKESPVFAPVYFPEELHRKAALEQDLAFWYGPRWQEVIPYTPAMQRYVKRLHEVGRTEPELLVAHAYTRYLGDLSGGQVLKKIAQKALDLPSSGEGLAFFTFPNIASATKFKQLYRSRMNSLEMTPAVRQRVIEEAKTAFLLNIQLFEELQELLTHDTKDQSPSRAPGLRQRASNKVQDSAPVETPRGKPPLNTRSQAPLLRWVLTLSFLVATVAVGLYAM
# testProtocol: Inhibition of human recombinant HO-1 by spectrometry based assay
pIC50: −log10 of the molar value.
readoutKind: pIC50

>>> measured("Brc1ccc(CCCCn2ccnc2)cc1")
6.60

[I] FC(F)(F)c1ccc(COc2ccc(CCn3ccnc3)cc2)cc1
[II] c1ccc(COc2ccc(CCn3ccnc3)cc2)cc1
Exercise: Form field 'greater pIC50' accepts I or II ; which applies? // output: label of the selected item
Solution: II

[1] OC(Cn1ccnc1)c1ccc(-c2ccc(Br)cc2)cc1 (stereo not given)
[2] Brc1ccc(CCC2(Cn3ccnc3)OCCO2)cc1
Exercise: Could you determine which record has the numerically smaller pIC50? Candidates: 1 and 2 Respond with the label that goes with your answer.
Solution: 2
